# Assayed System: ATP-dependent translocase ABCB1 (Homo sapiens)
# Experiment Notes: Negative allosteric modulator activity at P-gp in human LCC6MDR cells overexpressing P-gp assessed as reversal of P-gp mediated paclitaxel resistance activity by measuring relative fold at 1 uM incubated for 5 days by MTS assay
# Type: cell-based
# Measurement Context: 120 h, time 5 day
Measured Quantity: fold change (FC)

Worked set:
C#CCN(CCOCCOc1ccc(-c2cc(=O)c3ccccc3o2)cc1)Cc1ccc(C2(C(F)(F)F)N=N2)cc1	2.3
O=c1cc(-c2ccc(OCCOCCNCc3ccc(C4(C(F)(F)F)N=N4)cc3)cc2)oc2ccccc12	56.3
O=c1cc(-c2ccc(OCCOCCN(Cc3ccc(C4(C(F)(F)F)N=N4)cc3)Cc3ccc(C4(C(F)(F)F)N=N4)cc3)cc2)oc2ccccc12	0.8
O=c1cc(-c2ccc(OCCOCCOCCOCCOc3ccc(-c4cc(=O)c5ccccc5o4)cc3)cc2)oc2ccccc12	28
O=c1cc(-c2ccc(OCCOCCOCCOCCOc3ccc(-c4cc(=O)c5c(O)cc(O)cc5o4)cc3)cc2)oc2cc(O)cc(O)c12	11

Input: # lookup: fold change (FC) of C#CCNc1cc(C)cc2c(=O)cc(-c3ccc(OCCOCCN(Cc4ccc(C5(C(F)(F)F)N=N5)cc4)Cc4ccc(C5(C(F)(F)F)N=N5)cc4)cc3)oc12
Output: 0.4

Input: # lookup: fold change (FC) of O=c1cc(-c2ccc(OCCOCCN(CCOCCOc3ccc(-c4cc(=O)c5ccccc5o4)cc3)Cc3ccccc3)cc2)oc2ccccc12
Output: 68

Input: # lookup: fold change (FC) of O=c1cc(-c2ccc(O)cc2)oc2cc(O)cc(O)c12
Output: 1

Input: # lookup: fold change (FC) of [N-]=[N+]=NCc1cc(CNCCOCCOc2ccc(-c3cc(=O)c4ccccc4o3)cc2)cc(N=[N+]=[N-])c1
Output: 61.7

Input: # lookup: fold change (FC) of O=c1cc(-c2ccc(OCCOCCNCc3ccccc3)cc2)oc2ccccc12
Output: 34.1

Input: # lookup: fold change (FC) of C#CCOc1cccc2oc(-c3ccc(OCCOCCNCc4ccc(C5(C(F)(F)F)N=N5)cc4)cc3)cc(=O)c12
Output: 92.6

Input: # lookup: fold change (FC) of C#CCNc1cc(C)cc2c(=O)cc(-c3ccc(OCCOCCNCc4ccc(C5(C(F)(F)F)N=N5)cc4)cc3)oc12
Output: 0.5

* * *

# Assayed System: P-gp (ABCB1) Q1193A mutant (Homo sapiens, UniProt P08183, Q1193A)
# Sequence (P08183 whole entry Q1193A): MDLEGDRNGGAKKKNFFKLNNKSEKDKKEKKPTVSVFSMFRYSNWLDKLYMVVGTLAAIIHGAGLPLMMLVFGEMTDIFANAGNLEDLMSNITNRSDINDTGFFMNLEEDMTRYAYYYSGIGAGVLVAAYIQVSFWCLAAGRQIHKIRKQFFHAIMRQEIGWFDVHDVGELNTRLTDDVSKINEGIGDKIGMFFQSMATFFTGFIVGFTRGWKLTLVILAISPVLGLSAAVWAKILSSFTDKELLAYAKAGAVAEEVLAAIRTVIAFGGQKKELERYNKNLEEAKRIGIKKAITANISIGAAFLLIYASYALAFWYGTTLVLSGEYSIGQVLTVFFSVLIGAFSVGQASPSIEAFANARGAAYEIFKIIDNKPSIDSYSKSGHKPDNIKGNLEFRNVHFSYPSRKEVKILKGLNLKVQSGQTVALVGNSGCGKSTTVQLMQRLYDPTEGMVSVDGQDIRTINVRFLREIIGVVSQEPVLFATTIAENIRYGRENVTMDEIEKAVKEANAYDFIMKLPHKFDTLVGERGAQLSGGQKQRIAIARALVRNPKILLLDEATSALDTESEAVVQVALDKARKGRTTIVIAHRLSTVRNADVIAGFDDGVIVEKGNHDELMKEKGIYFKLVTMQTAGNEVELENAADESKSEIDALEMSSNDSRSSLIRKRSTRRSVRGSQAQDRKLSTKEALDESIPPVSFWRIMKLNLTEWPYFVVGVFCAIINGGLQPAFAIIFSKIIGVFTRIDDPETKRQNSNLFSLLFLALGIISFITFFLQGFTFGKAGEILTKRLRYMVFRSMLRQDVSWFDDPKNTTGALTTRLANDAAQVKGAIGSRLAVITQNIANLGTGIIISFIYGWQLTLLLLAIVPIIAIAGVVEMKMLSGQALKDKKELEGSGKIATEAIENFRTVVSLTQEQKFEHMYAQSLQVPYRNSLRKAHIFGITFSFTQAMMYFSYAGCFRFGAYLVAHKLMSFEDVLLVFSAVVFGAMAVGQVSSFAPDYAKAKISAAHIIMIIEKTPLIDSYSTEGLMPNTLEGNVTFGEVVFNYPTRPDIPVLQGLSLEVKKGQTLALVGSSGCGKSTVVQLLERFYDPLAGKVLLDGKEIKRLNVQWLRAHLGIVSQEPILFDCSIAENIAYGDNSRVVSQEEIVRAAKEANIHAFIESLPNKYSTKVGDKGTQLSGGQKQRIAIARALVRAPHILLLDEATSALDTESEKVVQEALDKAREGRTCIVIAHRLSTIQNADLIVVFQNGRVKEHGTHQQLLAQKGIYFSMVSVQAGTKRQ
# Experiment Notes: Activation of P-gp ATPase activity in human P-gp Q1193A mutant expressed in HEK293FT cell microsomes assessed as fold change of ATPase activity at 20 uM incubated for 1 hr in presence of ATP by Glo-luminescence based microplate reader assay relative to DMSO
# Set-up: species or system Microsome
# Measurement Context: read-out: FC
Measured Quantity: fold induction at 1 h, 20 µM
Reply: number alone, nothing else.

Input: # lookup: fold induction at 1 h, 20 µM of O=c1cc(-c2ccc(OCCOCCNCc3ccccc3)cc2)oc2ccccc12
Output: 1.1

* * *

# Assayed System: ATP-dependent translocase ABCB1 (Homo sapiens, UniProt P08183)
# Sequence (P08183 whole entry): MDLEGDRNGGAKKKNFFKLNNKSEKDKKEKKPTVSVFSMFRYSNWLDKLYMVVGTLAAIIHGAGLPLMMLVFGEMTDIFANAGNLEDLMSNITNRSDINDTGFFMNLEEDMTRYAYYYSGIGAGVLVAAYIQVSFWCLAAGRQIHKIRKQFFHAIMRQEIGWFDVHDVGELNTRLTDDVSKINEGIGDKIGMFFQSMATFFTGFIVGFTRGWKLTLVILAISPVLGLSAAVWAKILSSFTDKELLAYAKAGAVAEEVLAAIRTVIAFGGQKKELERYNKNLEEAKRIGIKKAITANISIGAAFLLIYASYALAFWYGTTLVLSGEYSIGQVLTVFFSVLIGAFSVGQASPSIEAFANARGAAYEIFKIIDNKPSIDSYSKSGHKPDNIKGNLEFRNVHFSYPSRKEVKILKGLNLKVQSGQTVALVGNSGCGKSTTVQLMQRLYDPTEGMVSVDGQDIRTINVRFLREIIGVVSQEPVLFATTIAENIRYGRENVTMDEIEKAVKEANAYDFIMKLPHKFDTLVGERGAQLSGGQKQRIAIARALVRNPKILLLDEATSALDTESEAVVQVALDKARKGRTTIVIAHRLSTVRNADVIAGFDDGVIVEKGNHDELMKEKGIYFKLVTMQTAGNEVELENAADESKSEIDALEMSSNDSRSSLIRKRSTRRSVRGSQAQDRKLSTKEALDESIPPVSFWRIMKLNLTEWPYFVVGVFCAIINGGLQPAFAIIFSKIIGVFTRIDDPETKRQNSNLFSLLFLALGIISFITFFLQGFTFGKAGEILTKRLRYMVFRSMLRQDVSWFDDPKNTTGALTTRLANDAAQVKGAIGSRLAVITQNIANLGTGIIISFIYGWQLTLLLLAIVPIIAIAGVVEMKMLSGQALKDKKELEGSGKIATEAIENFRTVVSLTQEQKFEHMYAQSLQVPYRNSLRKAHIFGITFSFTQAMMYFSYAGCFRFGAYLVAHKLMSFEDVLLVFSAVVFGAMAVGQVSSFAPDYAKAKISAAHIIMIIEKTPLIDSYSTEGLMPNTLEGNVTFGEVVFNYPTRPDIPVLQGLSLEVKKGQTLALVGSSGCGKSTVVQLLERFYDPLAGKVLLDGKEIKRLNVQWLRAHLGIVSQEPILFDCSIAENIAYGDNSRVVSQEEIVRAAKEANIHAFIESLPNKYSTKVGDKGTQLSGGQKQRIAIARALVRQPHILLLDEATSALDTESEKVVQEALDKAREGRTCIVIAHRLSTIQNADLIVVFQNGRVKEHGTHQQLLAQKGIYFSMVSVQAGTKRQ
# Experiment Notes: Binding affinity to human P-glycoprotein expressed in LCC6MDR cells assessed as stabilization of protein by measuring fluorescence at 1 uM incubated for 1 hr by Western blotting analysis
# Type: cell-based
Measured Quantity: Activity

C#CCOc1cccc2oc(-c3ccc(OCCOCCNCc4ccc(C5(C(F)(F)F)N=N5)cc4)cc3)cc(=O)c12	Active
C#CCNc1cc(C)cc2c(=O)cc(-c3ccc(OCCOCCNCc4ccc(C5(C(F)(F)F)N=N5)cc4)cc3)oc12	Not Active
[N-]=[N+]=NCc1cc(CNCCOCCOc2ccc(-c3cc(=O)c4ccccc4o3)cc2)cc(N=[N+]=[N-])c1	Active
C#CCN(CCOCCOc1ccc(-c2cc(=O)c3ccccc3o2)cc1)Cc1ccc(C2(C(F)(F)F)N=N2)cc1	Not Active

* * *

# Assayed System: P-gp (ABCB1) Q1193N mutant (Homo sapiens, UniProt P08183, Q1193N)
# Sequence (P08183 whole entry Q1193N): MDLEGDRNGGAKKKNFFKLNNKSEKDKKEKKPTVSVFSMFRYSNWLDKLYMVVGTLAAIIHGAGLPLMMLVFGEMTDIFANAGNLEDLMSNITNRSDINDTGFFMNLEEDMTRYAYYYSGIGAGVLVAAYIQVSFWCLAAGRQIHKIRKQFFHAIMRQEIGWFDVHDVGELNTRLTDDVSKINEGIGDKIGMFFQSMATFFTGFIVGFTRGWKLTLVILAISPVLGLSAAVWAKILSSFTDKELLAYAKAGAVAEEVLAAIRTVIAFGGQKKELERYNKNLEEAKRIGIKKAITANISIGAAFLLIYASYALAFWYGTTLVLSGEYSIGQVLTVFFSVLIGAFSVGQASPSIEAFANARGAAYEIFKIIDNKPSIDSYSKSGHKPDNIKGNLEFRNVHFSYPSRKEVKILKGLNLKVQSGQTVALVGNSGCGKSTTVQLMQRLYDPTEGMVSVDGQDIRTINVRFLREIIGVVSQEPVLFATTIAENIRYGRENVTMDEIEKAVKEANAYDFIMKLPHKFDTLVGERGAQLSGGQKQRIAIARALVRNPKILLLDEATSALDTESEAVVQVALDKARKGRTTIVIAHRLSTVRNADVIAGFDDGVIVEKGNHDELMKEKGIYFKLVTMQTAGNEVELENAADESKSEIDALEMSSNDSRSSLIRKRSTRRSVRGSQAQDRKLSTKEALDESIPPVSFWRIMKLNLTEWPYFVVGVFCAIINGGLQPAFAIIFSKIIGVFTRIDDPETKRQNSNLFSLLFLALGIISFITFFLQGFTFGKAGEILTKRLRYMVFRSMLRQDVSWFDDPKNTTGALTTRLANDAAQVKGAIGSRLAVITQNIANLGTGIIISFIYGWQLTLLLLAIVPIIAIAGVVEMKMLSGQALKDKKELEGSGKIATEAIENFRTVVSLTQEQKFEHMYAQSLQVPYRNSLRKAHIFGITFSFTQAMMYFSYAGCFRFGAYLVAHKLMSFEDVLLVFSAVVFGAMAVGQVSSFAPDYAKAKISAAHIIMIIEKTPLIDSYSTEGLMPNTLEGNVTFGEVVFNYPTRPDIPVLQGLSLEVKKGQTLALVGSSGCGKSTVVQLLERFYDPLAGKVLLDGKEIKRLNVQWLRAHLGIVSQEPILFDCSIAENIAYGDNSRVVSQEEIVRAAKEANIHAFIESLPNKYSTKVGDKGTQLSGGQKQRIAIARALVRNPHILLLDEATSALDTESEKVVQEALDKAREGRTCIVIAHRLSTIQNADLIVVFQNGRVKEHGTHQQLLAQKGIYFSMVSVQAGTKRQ
# Experiment Notes: Activation of P-gp ATPase activity in human P-gp Q1193N mutant expressed in HEK293FT cell microsomes assessed as fold change of ATPase activity at 20 uM incubated for 1 hr in presence of ATP by Glo-luminescence based microplate reader assay relative to DMSO
# Parameters: species or system Microsome
# Measurement Context: read-out: FC
Measured Quantity: fold induction at 1 h, 20 µM
Reply: number alone, nothing else.

Input: # lookup: fold induction at 1 h, 20 µM of O=c1cc(-c2ccc(OCCOCCNCc3ccccc3)cc2)oc2ccccc12
Output: 1.7
